Test system: Plasmodium berghei
Assay: Luciferase/luciferin-expressing antifolate-resistant parasites were used to infect a culture of HepG2 cells that were pre-incubated with compounds. Infected hepatocytes emit light due to the luciferase reaction. Assay results are presented as the percent inhibition of light emission compared to control. […]
Assay type: functional
Details: sporozoite, PBLUC_HILL_SLOPE 1.59, PBLUC_R_SQUARED 0.239, read-out: LUCIFERASE INFECTION ASSAY - IC50
Value Kind: IC50

Record "O=C(Nc1ccccc1)ON=C1CC2CCCC(C1)N2Cc1ccccc1" . Reported IC50: > 9.08 µM

* * *

Test system: Plasmodium berghei
Assay: Luciferase/luciferin-expressing antifolate-resistant parasites were used to infect a culture of HepG2 cells that were pre-incubated with compounds. Infected hepatocytes emit light due to the luciferase reaction. Assay results are presented as the percent inhibition of light emission compared to control. […]
Type: functional
Conditions: sporozoite, PBLUC_HILL_SLOPE 0.744, PBLUC_R_SQUARED 0.552, read-out: LUCIFERASE INFECTION ASSAY - IC50
Value Kind: IC50 (µM)
Give bare numbers, in µM.

Record "CCOC(=O)c1ccccc1NC(=O)C1CCN(c2ncnc3sc(C)c(C)c23)CC1" . Reported IC50: 5.7
